Tested on: UACC-257 melanoma
Assay: NCI tumour cell line growth inhibition, 48 h; in the data active = GI50 below about 0.43 µM; inactive = the rest
Outcome (select one): active, inactive

Any idea what this test logged for O=C(NCCNc1nccc(-c2c(-c3ccc(F)cc3)nc3sccn23)n1)Nc1cccc(C(F)(F)F)c1 ?
inactive

What was the test verdict on ClCCN(CCCl)c1ccc(OCc2ccccc2)cc1 ?
inactive

Short answer needed: outcome of this test for Cc1ccc([I+]c2ccc(C)cc2)cc1 ?
inactive

What classification did Fc1ccc(-c2nn3c(COc4ccccc4Cl)nnc3s2)cc1Oc1ccccc1 end up with in this test?
inactive

* * *

Tested on: SR leukemia
Experiment: NCI tumour cell line growth inhibition, 48 h
result_type: TGI

# example entries with known answers
compound=Nc1nc(N)c2cc(Sc3ccc(Cl)cc3)ccc2n1 value_measured="5.43 µM"
compound=Cc1cc(N(C)C)ccc1N=Nc1ccc2ncccc2c1 value_measured="> 100 µM"
compound=CN1C(=O)CNS1(=O)=O value_measured="> 100 µM"
compound=Brc1ccc2[nH]cc([C@@H]3CN[C@@H](c4c[nH]c5ccc(Br)cc45)CN3)c2c1 value_measured="4.17 µM"
compound="COC1OC(CO)C(O)C(NC(=O)N(C)N=O)C1O (centres undefined)" value_measured="> 100 µM"

The compound identified as O=C(Nn1c(-c2ccccc2)nc2ccccc2c1=O)c1ccc([N+](=O)[O-])cc1 registered its TGI at > 100 µM

The compound CCOC(=O)c1sc(Nc2cc(Cl)ccc2Cl)nc1C showed TGI equal to > 100 µM

Entry S=C1NC(c2ccccc2)=NC(Cc2ccccc2)(c2ccccc2)N1c1ccccc1 (centres undefined) , TGI reported as > 100 µM

# compound N#Cc1nc(/C=C/c2cccs2)oc1N ; its TGI = 74 µM

// TGI lookup, compound = COc1ccc(C(=O)O[C@@H]2CCN3CC[C@H](C)[C@H]23)cc1 , result: > 100 µM

TGI reported for this compound O=C(c1ccccc1)c1ccc(N2C(=O)/C(=C/c3cccc([N+](=O)[O-])c3)N=C2c2ccccc2)c(N2C(=O)/C(=C/c3cccc([N+](=O)[O-])c3)N=C2c2ccccc2)c1 : > 100 µM

# compound CC(C)C1=CC23CCC4C(C)(C(=O)O)CCCC4(C)C2CC1C1C(=O)N(c2ccc(N4C(=O)C5C6CC7C8(C)CCCC(C)(C(=O)O)C8CCC7(C=C6C(C)C)C5C4=O)cc2)C(=O)C13 (centres undefined) ; its TGI = 15.9 µM

So for COc1cc(/C=C(\C)c2ccc3c(c2)OCO3)cc(OC)c1OC , the logged TGI turned out to be 59.7 µM

Query O=C(CSc1nc2ccc([N+](=O)[O-])cc2[nH]1)Nc1ccc([N+](=O)[O-])cc1 yields TGI of > 46.4 µM

Value of measured TGI for the entry Clc1ccc(Nc2ncnc3ccccc23)cc1 : 60.9 µM

Memo: COc1ccc(/C=C2\N=C(N3CCOCC3)NC2=O)cc1 , reported TGI: > 100 µM

Field TGI (entry Nc1ccc(N=Nc2ccc(-c3ccc(N=Nc4c(S(=O)(=O)O)cc5cc(S(=O)(=O)O)c(N=Nc6ccc([N+](=O)[O-])cc6)c(N)c5c4O)cc3)cc2)c2cc(S(=O)(=O)O)ccc12 ) reads > 100 µM

For record COc1ccc(-c2c(C(C)=O)c(C)n(C3OC(COC(C)=O)C(OC(C)=O)C(OC(C)=O)C3OC(C)=O)c(=S)c2C#N)cc1 (centres undefined) the listed TGI is > 100 µM

Data point: O=C(O)CSc1nc2ccccc2[nH]1 ; TGI = > 100 µM
